- tested_on: T1, intermediate-affinity IL-2R (containing the β/γc-subunits of the IL-2R) expressed on HH cells (human, UniProt P14784 27-551; P31785 23-369)
- T1 sequence (looked up) 1: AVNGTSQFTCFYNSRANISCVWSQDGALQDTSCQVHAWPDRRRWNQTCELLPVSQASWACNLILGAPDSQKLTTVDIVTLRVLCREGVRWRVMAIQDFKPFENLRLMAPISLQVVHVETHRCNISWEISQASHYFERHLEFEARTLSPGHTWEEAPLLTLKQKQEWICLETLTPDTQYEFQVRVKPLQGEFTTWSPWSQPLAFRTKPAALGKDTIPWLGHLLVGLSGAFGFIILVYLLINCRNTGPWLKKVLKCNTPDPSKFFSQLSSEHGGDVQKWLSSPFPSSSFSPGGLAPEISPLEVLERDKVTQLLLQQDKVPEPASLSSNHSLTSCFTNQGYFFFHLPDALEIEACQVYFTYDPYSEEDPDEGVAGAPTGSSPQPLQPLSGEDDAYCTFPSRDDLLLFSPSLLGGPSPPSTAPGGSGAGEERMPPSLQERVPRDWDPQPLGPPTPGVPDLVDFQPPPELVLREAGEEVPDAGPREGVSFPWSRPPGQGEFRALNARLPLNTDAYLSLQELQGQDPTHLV
- T1 sequence (looked up) 2: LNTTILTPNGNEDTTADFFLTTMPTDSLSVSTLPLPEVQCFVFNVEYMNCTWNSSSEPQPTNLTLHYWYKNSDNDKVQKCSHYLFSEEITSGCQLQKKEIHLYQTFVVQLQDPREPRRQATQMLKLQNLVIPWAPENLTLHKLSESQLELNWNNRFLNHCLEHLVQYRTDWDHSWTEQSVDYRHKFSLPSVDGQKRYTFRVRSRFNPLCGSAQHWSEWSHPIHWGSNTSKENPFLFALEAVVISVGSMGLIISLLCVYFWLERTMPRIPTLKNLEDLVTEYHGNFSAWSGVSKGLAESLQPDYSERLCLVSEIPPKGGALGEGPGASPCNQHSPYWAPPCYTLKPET
- test_description: cell-based or functional assay
measurement_name: EC50 of pSTAT-5 induction in HH cells (flow cytometry) (nM)

a: IL-2 variant IL-2_#8 (F42V, Y45S, L72N, C125G) (ligand) APTSSSTKKTQLQLEHLLLDLQMILNGINNYKNPKLTRMLTVKFSMPKKATELKHLQCLEEELKPLEEVLNNAQSKNFHLRPRDLISNINVIVLELKGSETTFMCEYADETATIVEFLNRWITFGQSIISTLT
b: IL-2 variant IL-2_#12 (F42C, Y45N, L72V) (ligand) APTSSSTKKTQLQLEHLLLDLQMILNGINNYKNPKLTRMLTCKFNMPKKATELKHLQCLEEELKPLEEVLNVAQSKNFHLRPRDLISNINVIVLELKGSETTFMCEYADETATIVEFLNRWITFCQSIISTLT
c: IL-2 variant IL-2_#3 (F42V, Y45A, L72N, C125G) (ligand) APTSSSTKKTQLQLEHLLLDLQMILNGINNYKNPKLTRMLTVKFAMPKKATELKHLQCLEEELKPLEEVLNNAQSKNFHLRPRDLISNINVIVLELKGSETTFMCEYADETATIVEFLNRWITFGQSIISTLT
d: IL-2 variant IL-2_#9 (F42H, Y45D, L72I, C125G) (ligand) APTSSSTKKTQLQLEHLLLDLQMILNGINNYKNPKLTRMLTHKFDMPKKATELKHLQCLEEELKPLEEVLNIAQSKNFHLRPRDLISNINVIVLELKGSETTFMCEYADETATIVEFLNRWITFGQSIISTLT
Exercise: I'd appreciate it if you sorted the entries above by their EC50 of pSTAT-5 induction in HH cells (flow cytometry), lowest to highest. Order the labels as requested and list them.
Key: b, c, d, a
(b: 0.556 nM, c: 9.6 nM, d: 17.9 nM, a: 90.2 nM)
